The measured values listed here are drawn from patent US12201640B2.

Biological target: GABAA receptor α1β2γ2 (Homo sapiens, UniProt P14867+P47870)
Construct: expressed in transfected cells
Sequence (P14867 28-456): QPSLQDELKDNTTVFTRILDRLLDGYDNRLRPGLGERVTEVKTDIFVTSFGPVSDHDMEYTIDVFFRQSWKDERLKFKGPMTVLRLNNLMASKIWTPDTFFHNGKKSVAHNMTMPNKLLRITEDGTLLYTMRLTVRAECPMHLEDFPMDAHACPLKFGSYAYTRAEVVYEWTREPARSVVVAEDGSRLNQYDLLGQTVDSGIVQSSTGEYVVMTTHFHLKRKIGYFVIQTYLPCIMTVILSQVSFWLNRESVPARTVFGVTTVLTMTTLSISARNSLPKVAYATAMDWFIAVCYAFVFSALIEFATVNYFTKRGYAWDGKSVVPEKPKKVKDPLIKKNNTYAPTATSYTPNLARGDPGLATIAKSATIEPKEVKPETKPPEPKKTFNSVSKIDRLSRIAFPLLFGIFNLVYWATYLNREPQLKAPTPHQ
Sequence (P47870 25-512 limits assumed): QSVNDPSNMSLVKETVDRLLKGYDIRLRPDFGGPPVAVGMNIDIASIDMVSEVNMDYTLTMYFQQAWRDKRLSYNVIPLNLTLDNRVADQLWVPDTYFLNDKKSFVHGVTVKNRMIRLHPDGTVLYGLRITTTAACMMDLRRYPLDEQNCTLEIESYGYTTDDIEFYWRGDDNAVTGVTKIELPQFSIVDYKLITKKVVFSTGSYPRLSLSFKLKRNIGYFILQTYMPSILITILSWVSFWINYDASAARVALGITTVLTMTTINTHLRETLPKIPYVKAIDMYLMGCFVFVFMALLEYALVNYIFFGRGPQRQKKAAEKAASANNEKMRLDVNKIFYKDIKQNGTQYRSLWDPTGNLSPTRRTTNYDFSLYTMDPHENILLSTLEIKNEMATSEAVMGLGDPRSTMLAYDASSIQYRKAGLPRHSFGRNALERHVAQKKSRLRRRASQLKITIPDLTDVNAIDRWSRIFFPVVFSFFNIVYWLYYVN
Sequence (P18507 40-475 partner): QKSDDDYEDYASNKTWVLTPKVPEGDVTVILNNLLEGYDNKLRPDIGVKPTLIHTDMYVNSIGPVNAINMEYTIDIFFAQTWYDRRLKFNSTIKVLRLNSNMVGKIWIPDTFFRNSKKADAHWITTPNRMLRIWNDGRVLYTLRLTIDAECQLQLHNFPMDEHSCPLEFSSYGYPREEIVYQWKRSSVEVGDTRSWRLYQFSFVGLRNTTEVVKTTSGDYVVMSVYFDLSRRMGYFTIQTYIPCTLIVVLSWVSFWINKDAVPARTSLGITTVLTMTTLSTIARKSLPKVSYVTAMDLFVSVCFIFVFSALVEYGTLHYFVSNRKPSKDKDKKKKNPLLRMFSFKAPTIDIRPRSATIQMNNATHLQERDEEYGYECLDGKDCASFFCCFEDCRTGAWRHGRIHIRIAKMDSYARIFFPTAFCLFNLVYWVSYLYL
Test: Patch clamp electrophysiology, Qpatch in Ltk cells
Type: cell-based
Conditions: 10 μM test article, GABA EC20 2 μM, read-out: GABA (α1β2γ2) Qpatch in Ltk, % efficacy at 10 μM
assay-endpoint: Emax at 10 µM

Measured Emax at 10 µM, CCOC(=O)c1cnn(CC(=O)[C@H]2CC[C@H]3[C@@H]4CC[C@@H]5C[C@](C)(O)CC[C@@H]5[C@H]4CC[C@]23C)c1 : > 500%

Measured Emax at 10 µM, C[C@@]1(O)CC[C@H]2[C@H](CC[C@@H]3[C@@H]2CC[C@]2(C)[C@@H](C(=O)Cn4cc(Cl)cn4)CC[C@@H]32)C1 : > 500%

More entries:
Measured Emax at 10 µM, C[C@@]1(O)CC[C@H]2[C@H](CC[C@@H]3[C@@H]2CC[C@]2(C)[C@@H](C(=O)Cn4ccc(C(F)(F)F)n4)CC[C@@H]32)C1 : > 500%

* * *

Target: GABAA receptor α1β2γ2 (Homo sapiens, UniProt P14867+P47870)
Construct: expressed in transfected cells
Test: Patch clamp electrophysiology, Qpatch in Ltk cells
Type: cell-based
Conditions: 10 μM test article, GABA EC20 2 μM, read-out: GABA (α1β2γ2) Qpatch in Ltk, % efficacy at 10 μM
assay-endpoint: Emax at 10 µM

Check out these entries, answers already filled in.
Measured Emax at 10 µM, C[C@]12CC[C@H]3[C@@H](CC[C@@H]4C[C@@](O)(CF)CC[C@@H]43)[C@@H]1CC[C@@H]2C(=O)Cn1cc(C#N)cn1 [SA-32] : > 500%

Measured Emax at 10 µM, CCc1cnn(CC(=O)[C@H]2CC[C@H]3[C@@H]4CC[C@@H]5C[C@](C)(O)CC[C@@H]5[C@H]4CC[C@]23C)c1 [SA-16] : > 500%

Measured Emax at 10 µM, C[C@]12CC[C@H]3[C@@H](CC[C@H]4C[C@@](O)(CF)CC[C@@H]43)[C@@H]1CC[C@@H]2C(=O)Cn1cc(C#N)cn1 [SB-22] : > 500%

Measured Emax at 10 µM, CCOC[C@@]1(O)CC[C@H]2[C@@H](CC[C@@H]3[C@@H]2CC[C@]2(C)[C@@H](C(=O)Cn4cc(C#N)cn4)CC[C@@H]32)C1 [SB-9] : 100 to 500%

Measured Emax at 10 µM, C[C@@]1(O)CC[C@H]2[C@@H](CC[C@@H]3[C@@H]2CC[C@]2(C)[C@@H](C(=O)Cn4cccn4)CC[C@@H]32)C1 [SB-1] : 100 to 500%

# ---- query molecule ----
Measured Emax at 10 µM, C[C@@]1(O)CC[C@H]2[C@H](CC[C@@H]3[C@@H]2CC[C@]2(C)[C@@H](C(=O)Cn4cc([N+](=O)[O-])cn4)CC[C@@H]32)C1 [SA-8] : 100 to 500%

* * *

Target: GABAA receptor α1β2γ2 (Homo sapiens, UniProt P14867+P47870)
Construct: expressed in transfected cells
Assay: Patch clamp electrophysiology, Qpatch in Ltk cells
Assay type: cell-based
Details: 10 μM test article, GABA EC20 2 μM, read-out: GABA (α1β2γ2) Qpatch in Ltk, % efficacy at 10 μM
assay-endpoint: Emax at 10 µM

Check out these entries, answers already filled in.
Measured Emax at 10 µM, COC[C@@]1(O)CC[C@H]2[C@@H](CC[C@@H]3[C@@H]2CC[C@]2(C)[C@@H](C(=O)Cn4cc(C#N)cn4)CC[C@@H]32)C1 [SB-5] : > 500%

Measured Emax at 10 µM, CO[C@H]1C[C@H]2[C@@H](CC[C@@H]3[C@@H]2CC[C@]2(C)[C@@H](C(=O)Cn4cccn4)CC[C@@H]32)C[C@]1(C)O [SB-19] : > 500%

# ---- query compound ----
Measured Emax at 10 µM, CC[C@@]1(O)CC[C@H]2[C@@H](CC[C@@H]3[C@@H]2CC[C@]2(C)[C@@H](C(=O)Cn4cc(C#N)cn4)CC[C@@H]32)C1 [SB-21] : 100 to 500%
